Test system: ALK;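 further: KINOMEscan kinase panel screen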
CONDITION_PARAMETERS: concentration: 1 μM, replicates: in singlicate; n = 1
Recorded %Inh split into classes band 1 = under 5%, band 2 = from 5% up to 20%, band 3 = 20% and over

Nc1nccc2scc(-c3ccc4c(c3)CCN4C(=O)Cc3cc(F)ccc3F)c12 [GSK2587663]    band 2

Qu. Lab log: FC(F)(F)c1cc(Nc2nccc(-c3c(-c4ccc(Cl)cc4)nn4ncccc34)n2)ccc1Cl [GW829351] — assign %Inh category
Ans. band 2

Qu. Lab log: COC(=O)c1cccc(NC(=O)NCCNc2ccnc(Nc3ccc(F)cc3)n2)c1 [GSK1379883] — assign %Inh category
Ans. band 3

Qu. Lab log: COc1cc2c(Nc3cccc(NC(=O)c4ccccc4)c3)ncnc2cc1OCCCN1CCOCC1 [GSK223810] — assign %Inh category
Ans. band 3

Qu. Lab log: Cl.O=S(=O)(c1cccc(F)c1)c1ccc(Nc2ncnc3cc(Br)sc23)cc1Cl [GSK306886] — assign %Inh category
Ans. band 2

Qu. Lab log: CS(=O)(=O)CCNCc1ccc(-c2ccc3ncnc(Nc4ccc(OCc5ccccc5)c(Cl)c4)c3c2)o1.Cl [GW574783] — assign %Inh category
Ans. band 2

Qu. Lab log: CSc1ccc(NC2=C(c3ccccc3Cl)C(=O)NC2=O)cc1 [SB-342411] — assign %Inh category
Ans. band 1

Qu. Lab log: C[C@@H]1CCN(C(=O)CO)C[C@@H]1N(C)c1ncnc2[nH]ccc12 — assign %Inh category
Ans. band 2

Qu. Lab log: Cn1ccc2ncnc(Oc3ccc(NC(=O)Nc4cccnc4)c(Cl)c3)c21 — assign %Inh category
Ans. band 1

Qu. Lab log: O=C(Nc1ccccc1F)NC1CCN(c2ccnc(Nc3ccc(F)cc3)n2)C1 (stereo not drawn) [GSK1379722] — assign %Inh category
Ans. band 3

Qu. Lab log: O=C(CCO)NCCn1ccc2ncnc(Nc3ccc(Oc4cccc(C(F)(F)F)c4)c(Cl)c3)c21 — assign %Inh category
Ans. band 1

Qu. Lab log: COc1cc2ncnc(Nc3ccc(OCc4ccccc4Br)c(Cl)c3)c2cc1OC.Cl [GI261590] — assign %Inh category
Ans. band 3

Qu. Lab log: Cc1ccc(O)cc1Nc1cc(C(F)(F)F)nc2ccc(-c3ccncc3)cc12 [GW630823] — assign %Inh category
Ans. band 1

Qu. Lab log: Cn1cc(-c2ccc3c(c2)CCN3C(=O)Cc2cccc(C(F)(F)F)c2)c2c(N)ncnc21 [GSK2606414] — assign %Inh category
Ans. band 1
